Source listed as ChEMBL document CHEMBL1130249.

target: Mu-type opioid receptor; test: Inhibitory potency against Opioid receptor mu 1 was determined in electrically induced strips of guinea pig ileum (GPI)
Kindly state IC50 for each of the entries shown.
Answer with the value and then the unit.

# returns recorded IC50 (system: Mu-type opioid receptor) for `CC1(C)SSC(C)(C)[C@@H](NC(=O)[C@@H](N)Cc2ccc(O)cc2)C(=O)NCC(=O)N[C@@H](Cc2ccc(I)cc2)C(=O)N[C@@H]1C(=O)N[C@@H](Cc1ccccc1)C(=O)O`
8.7 µM

Likewise for `CC1(C)SSC(C)(C)[C@@H](NC(=O)[C@@H](N)Cc2ccc(O)cc2)C(=O)NCC(=O)N[C@@H](Cc2ccccc2)C(=O)N[C@@H]1C(=O)N[C@@H](Cc1ccccc1)C(=O)O` ?
5.8 µM

Likewise for `CC1(C)SSC(C)(C)[C@@H](NC(=O)[C@@H](N)Cc2ccc(O)cc2)C(=O)NCC(=O)N[C@@H](Cc2ccc(F)cc2)C(=O)N[C@@H]1C(=O)N[C@@H](Cc1ccccc1)C(=O)O` ?
0.74 µM

###

molecular target: Delta-type opioid receptor (Rattus norvegicus); experiment: Inhibition of binding of radioligand [3H][p-Cl-phe]-DPDPE to Opioid receptor delta 1 in rat brain; format: tissue-based
Sequence (P33533 whole entry): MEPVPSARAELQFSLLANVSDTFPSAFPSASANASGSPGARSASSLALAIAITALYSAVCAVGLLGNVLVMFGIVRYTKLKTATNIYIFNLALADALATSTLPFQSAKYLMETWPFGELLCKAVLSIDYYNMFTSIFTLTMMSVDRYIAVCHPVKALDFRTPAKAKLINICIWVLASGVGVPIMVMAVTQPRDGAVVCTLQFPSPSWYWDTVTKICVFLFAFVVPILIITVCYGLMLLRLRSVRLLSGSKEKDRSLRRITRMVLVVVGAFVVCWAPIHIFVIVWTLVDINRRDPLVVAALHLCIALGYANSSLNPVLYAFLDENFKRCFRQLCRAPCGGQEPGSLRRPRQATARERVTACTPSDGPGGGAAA
OBSERVABLE: IC50
Answer with the value and then the unit.

Query: IC50; subject: `CC1(C)SSC(C)(C)[C@@H](NC(=O)[C@@H](N)Cc2ccc(O)cc2)C(=O)NCC(=O)N[C@@H](Cc2ccc(F)cc2)C(=O)N[C@@H]1C(=O)N[C@@H](Cc1ccccc1)C(=O)O`
0.43 nM

Likewise for `CC1(C)SSC(C)(C)[C@@H](NC(=O)[C@@H](N)Cc2ccc(O)cc2)C(=O)NCC(=O)N[C@@H](Cc2ccccc2)C(=O)N[C@@H]1C(=O)N[C@@H](Cc1ccccc1)C(=O)O` ?
4 nM

Likewise for `CC1(C)SSC(C)(C)[C@@H](NC(=O)[C@@H](N)Cc2ccc(O)cc2)C(=O)NCC(=O)N[C@@H](Cc2ccc(Cl)cc2)C(=O)N[C@@H]1C(=O)N[C@@H](Cc1ccccc1)C(=O)O` ?
0.4 nM

Likewise for `CC1(C)SSC(C)(C)[C@@H](NC(=O)[C@@H](N)Cc2ccc(O)cc2)C(=O)NCC(=O)N[C@@H](Cc2ccc(I)cc2)C(=O)N[C@@H]1C(=O)N[C@@H](Cc1ccccc1)C(=O)O` ?
0.47 nM

Likewise for `CC1(C)SSC(C)(C)[C@@H](NC(=O)[C@@H](N)Cc2ccc(O)cc2)C(=O)NCC(=O)N[C@@H](Cc2ccc(Br)cc2)C(=O)N[C@@H]1C(=O)N[C@@H](Cc1ccccc1)C(=O)O` ?
0.2 nM

###

biological target: Delta-type opioid receptor (Mus musculus, UniProt P32300); assay: Inhibitory potency against Opioid receptor delta 1 was determined in electrically induced smooth muscle contractions of mouse vas deferens (MVD)
Sequence (P32300 whole entry): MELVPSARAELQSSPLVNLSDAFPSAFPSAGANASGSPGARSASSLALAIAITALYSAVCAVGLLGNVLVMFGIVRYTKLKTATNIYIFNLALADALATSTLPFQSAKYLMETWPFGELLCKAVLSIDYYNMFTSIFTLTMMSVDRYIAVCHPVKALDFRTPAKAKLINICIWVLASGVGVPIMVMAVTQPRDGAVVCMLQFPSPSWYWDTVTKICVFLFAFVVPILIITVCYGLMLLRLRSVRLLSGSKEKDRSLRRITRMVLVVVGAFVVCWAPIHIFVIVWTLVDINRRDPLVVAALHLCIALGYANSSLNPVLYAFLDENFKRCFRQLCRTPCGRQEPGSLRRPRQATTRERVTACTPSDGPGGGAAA
OBSERVABLE: IC50 (nM)
Express it in nM; write the number only.

Query: IC50; subject: `CC1(C)SSC(C)(C)[C@@H](NC(=O)[C@@H](N)Cc2ccc(O)cc2)C(=O)NCC(=O)N[C@@H](Cc2ccc(I)cc2)C(=O)N[C@@H]1C(=O)N[C@@H](Cc1ccccc1)C(=O)O`
0.8

Likewise for `CC1(C)SSC(C)(C)[C@@H](NC(=O)[C@@H](N)Cc2ccc(O)cc2)C(=O)NCC(=O)N[C@@H](Cc2ccccc2)C(=O)N[C@@H]1C(=O)N[C@@H](Cc1ccccc1)C(=O)O` ?
1.89

Likewise for `CC1(C)SSC(C)(C)[C@@H](NC(=O)[C@@H](N)Cc2ccc(O)cc2)C(=O)NCC(=O)N[C@@H](Cc2ccc(Cl)cc2)C(=O)N[C@@H]1C(=O)N[C@@H](Cc1ccccc1)C(=O)O` ?
0.17

Likewise for `CC1(C)SSC(C)(C)[C@@H](NC(=O)[C@@H](N)Cc2ccc(O)cc2)C(=O)NCC(=O)N[C@@H](Cc2ccc(F)cc2)C(=O)N[C@@H]1C(=O)N[C@@H](Cc1ccccc1)C(=O)O` ?
0.016

Likewise for `CC1(C)SSC(C)(C)[C@@H](NC(=O)[C@@H](N)Cc2ccc(O)cc2)C(=O)NCC(=O)N[C@@H](Cc2ccc(Br)cc2)C(=O)N[C@@H]1C(=O)N[C@@H](Cc1ccccc1)C(=O)O` ?
0.18
